Biological target: SARS-CoV-2 S PentaPro (F817), prefusion S trimer (SARS-CoV-2, Wuhan-Hu-1 sequence, UniProt P0DTC2, stabilised)
Experiment: ELISA
Reported property: binding result

>>> assay_value("C77G12 mAb (antibody, V domains shown) VH: EVQLVESGGGVVQPGRSLRISCAVSGFTFGSYAMHWVRQAPGKGLEWVGVMSSDGHNEYYADSVKGRFTISRDNSRNKLYLEMNNLRVDDTAVFYCARGSDYVDDSPPLHYWGQGTLVTVSS VL: DIQLTQSPSSLSASIGDRVTITCRASQDIANKLAWFQQAPGKAPKSLIYAASRLQSGVPSQFSGSGSGTDFTLTIESLQAGDFATYFCQQYDSFPFTFGPGTKVDVK")
"binds"
>>> assay_value("C13B8 mAb (antibody, V domains shown) VH: QVQLQESGPGLVQPSQTLTLTCTVSGDSISNEDYHWTWIRQHPGKGLEWMGYLQYSGNTNYNPSLKSRMTISVDTSKNQFSLRLNSVTAADTAVYFCATSIVLTGMSNKIQPFDYWGQGTLVTVSS VL: SYELTQPPSVSVSPGQMARITCSGEALPKKYAYWYQQKGGQFPVLVIYKDTERPSGIPERFSGSSSGTIVTLTISGVQPEDEADYYCLSADTSGTWVFGGGTKLTVL")
"binds"
>>> assay_value("C13C9 mAb (antibody, V domains shown) VH: EVQLVQSGPEVKKPGTSARVSCKASGFTSKNTALQWVRQARGQPLEWMGWIDISNYITNYAQKFRGRLTITWDLSASMAYMELSSLRSEDTAVYYCAAVGKDDDVLTGGNKYFDHWGQGTLVTVSS VL: SYELTQPPSVSVSPGQTARITCSGDALPKKYAYWYQQKSGQAPVLVIHEDDKRPSGIPGRFSASSSGTTATLTISGAQVEDEADYYCYSTDTNDNHAFGSGTKLTVL")
"binds"
>>> assay_value("VP12E7 mAb (antibody, V domains shown) VH: QVQLVQSGGGVVQPGESLRLSCSGSGFTFNNYIMHWVRQAPGQGLDYVSGIGSDGRNTNYGDSVKGRFTISRDNSKDTLYLQMTSLRAEDTAFYYCVKGLDVLRFLDLSTPSGERLDAFDIWGQGTMVTVSS VL: DIVMTQSPSFLSASVGDRVTITCRASQGISNYLAWYQQKPGKAPHLLIYAASTLQSGVPSRFSGSGSGTEFTLTISSLQPEDFATYYCQQLNSYPLFTFGPGTKVDIE")
"binds"
